method: NCI Yeast Anticancer Drug Screen. Data for the mec2-1 strain (AID 157)
reported-conditions: S. cerevisiae mec2-1 strain, at 50.0 µM, active compounds read high
Compounds without any hit were thinned out: in the full panel of roughly 79,000, 15% have a hit. Activity calls are given as the source filed them. Cut-off read from the data, not from the text of the source: active = growth inhibition above about 70%; inactive = the rest.
Recorded growth inhibition, one value per entry.

Solved entries (count: 4):
molecule	growth inhibition
Cn1ncnc1CCc1ccccc1	-3.9% (inactive)
Nc1ncc(Cl)c(NCC2(CO)CC(CCc3ccccc3)C2)n1 (stereo not given)	-19.1% (inactive)
CC(=O)[C@@H](C)C(=O)N1C(=O)OC[C@@]12[C@@H]1CC[C@@H](C1)C2(C)C	-31.4% (inactive)
O=C1N=C(C=c2ccc(=Cc3[nH]c(=O)[nH]c3O)cc2)C(=O)N1	-11.4% (inactive)

(Q) Could you tell me which growth inhibition is on file for Cc1oc2ccccc2c(=O)c1Cn1cnc2ccc([N+](=O)[O-])cc21 ?
(A) 10.3% (inactive)

(Q) Lookup CCOC(C)C1C2CCCCC21 (stereo not given)
(A) 0.75% (inactive)

(Q) Try this molecule next: COc1cc(NCCCCCCN(C)C)c2ncccc2c1
(A) -21.2% (inactive)

(Q) And for C[Si](C)(CNCCN)O[Si](C)(C)CNCCN ?
(A) -18.8% (inactive)

(Q) For C=CCSC(C)=O then?
(A) -0.05% (inactive)

(Q) Would you kindly repeat that for Cc1cc2nc3ccc(O)cc3[n+](C)c2cc1N ?
(A) 28.6% (inactive)
